FYI, the data here is from ChEMBL document CHEMBL1125826.

System: Streptococcus pneumoniae
Assay: Antibacterial activity was determined against gram positive organism, Streptococcus pneumoniae SV-1
Format: functional
Settings: Streptococcus pneumoniae; read-out: MIC
READOUT_NAME: MIC

Use the examples below as a reference point.
- MOLECULE: "CCNCC1CCN(c2cc3c(c(N)c2F)c(=O)c(C(=O)O)cn3CC)C1 (stereo not given)"
  TARGET_SYSTEM: "Streptococcus pneumoniae"
  MIC: "0.4 µg/mL"
- MOLECULE: "CCn1cc(C(=O)O)c(=O)c2cc(F)c(N3CCNC(C)C3)cc21 (stereo not given)"
  TARGET_SYSTEM: "Streptococcus pneumoniae"
  MIC: "1.6 µg/mL"
- MOLECULE: "CCNCC1CCN(c2c(F)c(O)c3c(=O)c(C(=O)O)cn(CC)c3c2F)C1 (stereo not given)"
  TARGET_SYSTEM: "Streptococcus pneumoniae"
  MIC: "0.2 µg/mL"
- MOLECULE: "CC1CN(c2cc3c(c(N)c2F)c(=O)c(C(=O)O)cn3C2CC2)CCN1 (stereo not given)"
  TARGET_SYSTEM: "Streptococcus pneumoniae"
  MIC: "0.1 µg/mL"
- MOLECULE: "CCNCC1CCN(c2c(F)cc3c(=O)c(C(=O)O)cn4c3c2OCC4C)C1 (stereo not given)"
  TARGET_SYSTEM: "Streptococcus pneumoniae"
  MIC: "0.1 µg/mL"

Give the measured MIC of CC1CN(c2cc3c(cc2F)c(=O)c(C(=O)O)cn3-c2ccc(F)cc2F)CCN1 (stereo not given) .
0.1 µg/mL

Continue with CCNCC1CCN(c2c(F)cc3c(=O)c(C(=O)O)cn(C4CC4)c3c2F)C1 (stereo not given)
0.025 µg/mL

Continue with CCn1cc(C(=O)O)c(=O)c2c(O)c(F)c(N3CCNCC3)c(F)c21
25 µg/mL

Continue with CCn1cc(C(=O)O)c(=O)c2cc(F)c(N3CC(C)NC(C)C3)cc21 (stereo not given)
1.6 µg/mL

Continue with CCn1cc(C(=O)O)c(=O)c2c(O)c(F)c(N3CC(C)NC(C)C3)c(F)c21 (stereo not given)
50 µg/mL

----------
System: Bacteria
Assay: Antibacterial activity was determined against gram negative organism, Providencia rettgeri. M1771
Format: functional
Details: Bacteria; read-out: MIC
Catalogue of compounds with associated MIC
Report the figure in µg/mL without appending any unit label.

Use the examples below as a reference point.
- COMPOUND: "CCNCC1CCN(c2c(F)cc3c(=O)c(C(=O)O)cn(CC)c3c2Cl)C1 (stereo not given)"
  MIC, µg/mL: 0.8
- COMPOUND: "O=C(O)c1cn(C2CC2)c2c(Cl)c(N3CCNCC3)c(F)cc2c1=O"
  MIC, µg/mL: 0.1
- COMPOUND: "CCn1cc(C(=O)O)c(=O)c2cc(F)c(N3CCNC(C)C3)cc21 (stereo not given)"
  MIC, µg/mL: 0.2

Give the measured MIC of CCn1cc(C(=O)O)c(=O)c2cc(F)c(N3CC(C)NC(C)C3)c(Cl)c21 (stereo not given) .
6.3

Continue with NC1CCN(c2cc3c(c(O)c2F)c(=O)c(C(=O)O)cn3C2CC2)C1 (stereo not given)
0.05

----------
Test system: Staphylococcus aureus
Test: Antibacterial activity was determined against gram positive organism, Staphylococcus aureus H228
Type: functional
Conditions: Staphylococcus aureus; read-out: MIC
Catalogue of compounds with associated MIC
Report the figure in mg/L without appending any unit label.

Use the examples below as a reference point.
- COMPOUND: "C[C@@H]1CN(c2c(F)c(N)c3c(=O)c(C(=O)O)cn(C4CC4)c3c2F)C[C@H](C)N1 [SPARFLOXACIN]"
  MEASUREMENT: 0.05
- COMPOUND: "CC1CN(c2c(F)c(N)c3c(=O)c(C(=O)O)cn(C4CC4)c3c2F)CCN1 (stereo not given)"
  MEASUREMENT: 0.05
- COMPOUND: "CC1CN(c2c(F)c(N)c3c(=O)c(C(=O)O)cn(C4CC4)c3c2Cl)CCN1 (stereo not given)"
  MEASUREMENT: 0.05
- COMPOUND: "CCNCC1CCN(c2c(F)c(N)c3c(=O)c(C(=O)O)cn(CC)c3c2F)C1 (stereo not given)"
  MEASUREMENT: 0.2
- COMPOUND: "CCn1cc(C(=O)O)c(=O)c2cc(F)c(N3CC(C)NC(C)C3)cc21 (stereo not given)"
  MEASUREMENT: 1.6

Please turn your attention to the following entry.
Give the measured MIC of CCn1cc(C(=O)O)c(=O)c2cc(F)c(N3CC(C)NC(C)C3)c(F)c21 (stereo not given) .
1.6
